tested.system: Hepatocyte growth factor receptor (Homo sapiens, UniProt P08581, M1250T)
Sequence (P08581 whole entry M1250T): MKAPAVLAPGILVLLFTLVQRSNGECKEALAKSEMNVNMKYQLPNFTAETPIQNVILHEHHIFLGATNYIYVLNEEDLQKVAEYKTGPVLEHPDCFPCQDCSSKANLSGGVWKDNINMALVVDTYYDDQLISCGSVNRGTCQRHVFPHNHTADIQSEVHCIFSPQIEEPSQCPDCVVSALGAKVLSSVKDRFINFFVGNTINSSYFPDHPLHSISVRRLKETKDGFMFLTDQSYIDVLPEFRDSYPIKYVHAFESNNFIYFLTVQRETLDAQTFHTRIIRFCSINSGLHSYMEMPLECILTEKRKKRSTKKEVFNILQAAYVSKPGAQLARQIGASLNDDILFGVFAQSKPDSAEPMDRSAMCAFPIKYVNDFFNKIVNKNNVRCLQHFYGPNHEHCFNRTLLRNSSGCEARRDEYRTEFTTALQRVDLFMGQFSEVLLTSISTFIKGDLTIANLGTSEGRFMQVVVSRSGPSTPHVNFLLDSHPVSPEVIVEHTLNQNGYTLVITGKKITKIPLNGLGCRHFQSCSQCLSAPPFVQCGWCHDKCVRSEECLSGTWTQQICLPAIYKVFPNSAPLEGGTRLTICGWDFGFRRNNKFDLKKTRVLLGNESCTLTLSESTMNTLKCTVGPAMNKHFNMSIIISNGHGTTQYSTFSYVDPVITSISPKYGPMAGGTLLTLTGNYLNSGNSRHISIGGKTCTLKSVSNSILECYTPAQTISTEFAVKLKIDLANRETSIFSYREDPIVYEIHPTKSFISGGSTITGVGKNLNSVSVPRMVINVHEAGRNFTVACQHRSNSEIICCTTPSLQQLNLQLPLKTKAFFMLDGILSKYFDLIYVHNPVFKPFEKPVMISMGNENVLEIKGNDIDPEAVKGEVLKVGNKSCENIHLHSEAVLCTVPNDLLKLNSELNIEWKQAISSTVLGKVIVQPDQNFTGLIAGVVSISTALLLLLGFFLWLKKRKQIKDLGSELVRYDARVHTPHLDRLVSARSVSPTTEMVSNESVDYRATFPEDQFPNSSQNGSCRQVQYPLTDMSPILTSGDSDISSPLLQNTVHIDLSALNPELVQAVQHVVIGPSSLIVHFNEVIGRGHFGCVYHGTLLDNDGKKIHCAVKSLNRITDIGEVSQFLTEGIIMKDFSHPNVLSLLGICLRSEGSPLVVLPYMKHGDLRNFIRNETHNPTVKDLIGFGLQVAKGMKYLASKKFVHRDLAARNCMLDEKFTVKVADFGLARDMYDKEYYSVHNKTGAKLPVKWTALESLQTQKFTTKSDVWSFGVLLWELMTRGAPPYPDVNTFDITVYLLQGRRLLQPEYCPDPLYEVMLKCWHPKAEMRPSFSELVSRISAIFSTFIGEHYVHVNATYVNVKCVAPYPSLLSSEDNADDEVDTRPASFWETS
measurement.protocol: Inhibition of recombinant human His-tagged c-MET M1250T mutant expressed in baculovirus expression system assessed as reduction in c-MET phosphorylation using Tyr6 as substrate incubated for 1 hr by Z'-lyte assay
pIC50: −log10 of the molar value.
measurement.type: pIC50

C=CC(C)(C)[C@@]12C=C(O)C(=O)N3/C(=C/c4cnc[nH]4)C(=O)N[C@]31N(OC)c1ccccc12 ... 5.68

---

measurement.protocol: Cytotoxicity against human MCF-10A cells assessed as cell viability at 10 uM incubated for 72 hrs by MTT assay
Format: cell-based
stated.conditions: read-out: Activity
measurement.type: viability at 72 h, 10 µM (%)

C=CC(C)(C)[C@@]12C=C(O)C(=O)N3/C(=C/c4cnc[nH]4)C(=O)N[C@]31N(OC)c1ccccc12 ... 98.8

---

Test system: T47D
measurement.protocol: Antiproliferative activity against human T47D cells assessed as reduction in cell viability incubated for 72 hrs by MTT assay
Type: functional, cell-based
pIC50: −log10 of the molar value.
measurement.type: pIC50

C=CC(C)(C)[C@@]12C=C(O)C(=O)N3/C(=C/c4cnc[nH]4)C(=O)N[C@]31N(OC)c1ccccc12 ... < 4.40

---

measurement.protocol: Cytotoxicity against human MCF-10A cells assessed as cell viability at 30 uM incubated for 72 hrs by MTT assay
Type: cell-based
stated.conditions: read-out: Activity
measurement.type: viability at 72 h, 30 µM (%)

C=CC(C)(C)[C@@]12C=C(O)C(=O)N3/C(=C/c4cnc[nH]4)C(=O)N[C@]31N(OC)c1ccccc12 ... 48.9

---

viability at 72 h, 20 µM values for the molecules below.
measurement.protocol: Cytotoxicity against human MCF-10A cells assessed as cell viability at 20 uM incubated for 72 hrs by MTT assay
Assay type: cell-based
stated.conditions: read-out: Activity
measurement.type: viability at 72 h, 20 µM (%)

C=CC(C)(C)[C@@]12C[C@H]3C(=O)N/C(=C/c4c[nH]cn4)C(=O)N3[C@@H]1Nc1ccccc12 ... 98.4
C=CC(C)(C)[C@@]12C=C(O)C(=O)N3/C(=C/c4cnc[nH]4)C(=O)N[C@]31N(OC)c1ccccc12 ... 74.4
